Reported inhibition values for a set of compounds
# Measurement Target: Xaa-Pro dipeptidase (Homo sapiens)
# Assay Comment: Inhibition of recombinant human PEPD using Ala-Pro as substrate assessed as alanine release by measuring increase in fluorescense signal at 1 uM by fluorescence based analysis relative to control
Lab book: enter the figure in %, no units written.

Some compounds with recorded inhibition:
COC(=O)[C@H](C)NC(=O)[C@@H]1CCCN1C(=O)[C@@H]1CCCN1C(=O)[C@@H](O)[C@H](N)CC(C)C | 96
COC(=O)[C@@H](NC(=O)[C@@H]1CCCN1C(=O)[C@@H](O)[C@H](N)CC(C)C)C(C)C | 42
COC(=O)[C@H](Cc1ccccc1)NC(=O)[C@@H]1CCCN1C(=O)[C@@H](O)[C@H](N)CC(C)C | 43
COC(=O)[C@H](CC(C)C)NC(=O)[C@@H]1CCCN1C(=O)[C@@H](O)[C@H](N)CC(C)C | 60

Memo: CC[C@H](C)[C@H](NC(=O)[C@@H]1CCCN1C(=O)[C@@H](O)[C@H](N)CC(C)C)C(=O)OC , reported inhibition: 48

The reported value for COC(=O)[C@@H]1CCCN1C(=O)[C@@H](O)[C@H](N)CC(C)C in terms of inhibition is 48

====

# Assay Comment: Stability of the compound in human MV4-11 cells assessed as de-esterification by measuring parent compound remaining measured after 24 hrs by LC-MS analysis
# Format: ADME, cell-based
# Condition Context: read-out: Stability
Quantity Measured: remaining at 24 h (%)
Hi! Could you send only the number? It should be in %, unit omitted.

Note to self: remaining at 24 h recorded for COC(=O)[C@@H]1CCCN1C(=O)[C@@H](O)[C@H](N)CC(C)C was 50

====

# Measurement Target: Xaa-Pro aminopeptidase 1 (Homo sapiens, UniProt Q9NQW7)
# Sequence (Q9NQW7 whole entry): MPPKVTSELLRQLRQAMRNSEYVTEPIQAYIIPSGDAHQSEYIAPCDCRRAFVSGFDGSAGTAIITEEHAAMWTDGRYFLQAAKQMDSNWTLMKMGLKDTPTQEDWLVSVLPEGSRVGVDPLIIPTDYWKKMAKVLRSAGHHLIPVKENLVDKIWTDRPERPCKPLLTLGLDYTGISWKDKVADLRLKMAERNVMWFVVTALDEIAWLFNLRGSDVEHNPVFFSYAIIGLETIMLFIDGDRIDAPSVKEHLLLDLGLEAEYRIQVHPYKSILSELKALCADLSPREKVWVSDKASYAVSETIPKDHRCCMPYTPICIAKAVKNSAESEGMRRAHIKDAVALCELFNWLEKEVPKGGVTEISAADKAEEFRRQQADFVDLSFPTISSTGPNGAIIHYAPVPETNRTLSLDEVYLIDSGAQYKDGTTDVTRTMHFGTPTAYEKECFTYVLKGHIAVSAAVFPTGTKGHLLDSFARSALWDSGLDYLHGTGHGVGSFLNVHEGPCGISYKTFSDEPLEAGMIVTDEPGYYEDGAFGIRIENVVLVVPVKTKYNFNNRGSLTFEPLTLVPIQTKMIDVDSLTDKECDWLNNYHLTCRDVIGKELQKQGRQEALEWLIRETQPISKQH
Quantity Measured: pIC50
Recall that pIC50 is obtained by taking minus log10 of the concentration measured in molar.

The molecule identified as CC(C)C[C@H](NC(=O)[C@@H]1CCCN1C(=O)[C@@H](O)[C@H](N)CC(C)C)C(=O)NCCc1ccc2cc[nH]c2c1 registered its pIC50 at 5.70
